# test method notes: Photostability in solution in a chemical solvent (Suntest CPS+)
# Type: physicochemical
# study conditions: 25 μg deposited from methanol, Suntest irradiation 10 MED, absorbance vs non-irradiated control; in % (unit assumed)
Listed below: Photostability at 10 MED, mean values for each entry.
Would you mind answering with just the numeric figure?

IN: # get_value(readout='Photostability at 10 MED, mean', item= c1ccc(-c2nnc(-c3ccc(-c4ccc(-c5nnc(-c6ccccc6)c(-c6ccccc6)n5)cc4)cc3)nc2-c2ccccc2)cc1 )
OUT: 33.66

IN: Need Photostability at 10 MED, mean, item CC(C)CCC(C)(C)c1ccc(-c2nnc(-c3ccc(-c4nnc(-c5ccc(C(C)(C)CCC(C)C)cc5)c(-c5ccc(C(C)(C)CCC(C)C)cc5)n4)cc3)nc2-c2ccc(C(C)(C)CCC(C)C)cc2)cc1
OUT: 70.15

IN: Look up Photostability at 10 MED, mean for this compound: c1ccc(-c2nnc(-c3cccc(-c4nnc(-c5ccccc5)c(-c5ccccc5)n4)c3)nc2-c2ccccc2)cc1
OUT: 62.53

====

# test method notes: Spectral characteristics: molar extinction coefficient and specific absorbance (UV spectrophotometry in ethyl acetate)
# Format: physicochemical
# study conditions: 10 μg/ml, UVA band
Maximum molar extinction coefficient UVA values, listed per item
# number only, unit M⁻¹ cm⁻¹ dropped from output

Worked cases, Maximum molar extinction coefficient UVA given:
c1ccc(-c2nnc(-c3ccc(-c4nnc(-c5ccccc5)c(-c5ccccc5)n4)cc3)nc2-c2ccccc2)cc1    50200
COc1ccc(C(=O)CC(=O)c2ccc(C(C)(C)C)cc2)cc1 [Parsol 1789 ®, reference compound]    34100
CCCCC(CC)COc1ccc(-c2nc(-c3ccc(OC)cc3)nc(-c3ccc(OCC(CC)CCCC)cc3O)n2)c(O)c1 (stereo not shown) [Tinosorb S ®, reference compound]    49580

IN: I would be grateful if you could share the reported Maximum molar extinction coefficient UVA for Brc1ccc(-c2nnc(-c3ccc(-c4nnc(-c5ccc(Br)cc5)c(-c5ccc(Br)cc5)n4)cc3)nc2-c2ccc(Br)cc2)cc1 .
OUT: 57300

IN: Which value of Maximum molar extinction coefficient UVA has been reported for Fc1ccc(-c2nnc(-c3ccc(-c4nnc(-c5ccc(F)cc5)c(-c5ccc(F)cc5)n4)cc3)nc2-c2ccc(F)cc2)cc1 in the records?
OUT: 47700

IN: Consider the molecule c1ccc(-c2nnc(-c3ccc(-c4ccc(-c5nnc(-c6ccccc6)c(-c6ccccc6)n5)cc4)cc3)nc2-c2ccccc2)cc1 and give its measured Maximum molar extinction coefficient UVA.
OUT: 57000

IN: // returns reported Maximum molar extinction coefficient UVA for input Clc1ccc(-c2nnc(-c3ccc(-c4nnc(-c5ccc(Cl)cc5)c(-c5ccc(Cl)cc5)n4)cc3)nc2-c2ccc(Cl)cc2)cc1
OUT: 43400

====

# test method notes: Photostability in solution in a chemical solvent (Suntest CPS+)
# Format: physicochemical
# study conditions: 25 μg deposited from methanol, Suntest irradiation 5 MED, absorbance vs non-irradiated control; in % (unit assumed)
# Experimental: A Suntest CPS+(Atlas, Linsengenicht/Altenhasslan, Germany) was used. The Suntest makes it possible to reproduce the solar spectrum and thus to carry out exposures inside at any time without weather constraints. The radiance of the solar simulator was carefully measured with a spectroradiometer (MSS 2044, Bielefeld, Germany). […] The Suntest test duration is calculated using the following formula: t=H/E with: • E=illumination energy in W/m^2 • H=irradiation dose in J/m^2 • t=duration of the test in s […]
Mark each entry TRUE if its Photostability at 5 MED, mean sits below 80, and FALSE for all others.

CCCCCCCCCCCCc1ccc(-c2nnc(-c3ccc(-c4nnc(-c5ccc(CCCCCCCCCCCC)cc5)c(-c5ccc(CCCCCCCCCCCC)cc5)n4)cc3)nc2-c2ccc(CCCCCCCCCCCC)cc2)cc1    FALSE

IN: Below 80 on Photostability at 5 MED, mean? Entry c1ccc(-c2nnc(-c3ccc(-c4ccc(-c5nnc(-c6ccccc6)c(-c6ccccc6)n5)cc4)cc3)nc2-c2ccccc2)cc1
OUT: TRUE

IN: Dear colleague, could you confirm whether Photostability at 5 MED, mean of CC(C)CCC(C)(C)c1ccc(-c2nnc(-c3ccc(-c4nnc(-c5ccc(C(C)(C)CCC(C)C)cc5)c(-c5ccc(C(C)(C)CCC(C)C)cc5)n4)cc3)nc2-c2ccc(C(C)(C)CCC(C)C)cc2)cc1 falls below 80? Thanks.
OUT: TRUE

IN: Decide: Photostability at 5 MED, mean of CC(C)(C)c1ccc(-c2nnc(-c3ccc(-c4nnc(-c5ccc(C(C)(C)C)cc5)c(-c5ccc(C(C)(C)C)cc5)n4)cc3)nc2-c2ccc(C(C)(C)C)cc2)cc1 strictly below 80?
OUT: FALSE

IN: Input c1ccc(-c2nnc(-c3cccc(-c4nnc(-c5ccccc5)c(-c5ccccc5)n4)c3)nc2-c2ccccc2)cc1 ; condition: Photostability at 5 MED, mean strictly below 80. Does it hold?
OUT: TRUE
